B1: library; a variant is named by its letters at N, in order (parent)
chain: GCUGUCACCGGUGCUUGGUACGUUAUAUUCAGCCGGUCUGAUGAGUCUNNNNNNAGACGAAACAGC

# Variants of: B1
# protocolSummary: normalized RNA/DNA level without ligand (relative to sTRSVctl = 100) (log10 (% of sTRSVctl)); HEK293T overexpressing SLC46A1; higher = less ribozyme self-cleavage, higher mRNA level
# settings: without (6R,S)-folinic acid; ligand present: no
Listed here: items and their measured normalized RNA/DNA level without ligand (log10).

[[record]]
variantspec = "AGAAAC"
reportedmeasurement = 2

[[record]]
variantspec = "AUGCUC"
reportedmeasurement = 2.05

[[record]]
variantspec = "CUGGCG"
reportedmeasurement = 1.99


Now for another entry.
Memo: AGUAGC , reported normalized RNA/DNA level without ligand (log10): 1.99
